Origin of measurements: patent US20200207759A1

- TARGET_OF_ASSAY: Human norepinephrine transporter (NET) (Homo sapiens, UniProt P23975)
- Sequence (P23975 whole entry): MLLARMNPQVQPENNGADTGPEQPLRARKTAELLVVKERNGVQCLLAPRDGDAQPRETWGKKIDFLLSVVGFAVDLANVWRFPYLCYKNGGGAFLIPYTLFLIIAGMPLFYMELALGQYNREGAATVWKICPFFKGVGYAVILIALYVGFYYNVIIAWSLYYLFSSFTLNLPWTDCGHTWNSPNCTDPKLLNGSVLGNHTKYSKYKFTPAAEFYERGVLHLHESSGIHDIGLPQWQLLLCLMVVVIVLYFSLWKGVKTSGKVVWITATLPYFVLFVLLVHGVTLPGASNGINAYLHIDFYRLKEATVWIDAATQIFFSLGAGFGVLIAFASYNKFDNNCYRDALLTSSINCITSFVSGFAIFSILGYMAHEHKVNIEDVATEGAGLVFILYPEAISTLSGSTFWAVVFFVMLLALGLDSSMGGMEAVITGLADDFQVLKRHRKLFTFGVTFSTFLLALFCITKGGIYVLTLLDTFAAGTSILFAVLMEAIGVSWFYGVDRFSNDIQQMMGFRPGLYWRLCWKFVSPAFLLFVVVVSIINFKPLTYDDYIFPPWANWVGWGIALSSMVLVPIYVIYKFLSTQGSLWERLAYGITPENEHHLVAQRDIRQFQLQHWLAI
- TEST_DETAILS: Binding assay to human norepinephrine transporter (NET), [3H]-Nisoxetin
- DETAILS: human NET enriched membranes, 5 nM [3H]-Nisoxetin; read-out: Ki (nM) NET Hum

>  <COMPOUND>
CCNCCC(c1cccs1)N1CCc2ncccc21 (stereo not drawn)

>  <Ki>
> 1000 nM

$$$$
>  <COMPOUND>
CNCCC(c1cccs1)N1CCc2ccccc21 (stereo not drawn)

>  <Ki>
< 100 nM

$$$$
>  <COMPOUND>
CNCC[C@H](c1ccsc1)N1CCc2nc(C)ccc21

>  <Ki>
> 1000 nM

$$$$
>  <COMPOUND>
CNCC[C@H](c1ccsc1)N1CC(C)(C)c2ncc(C)cc21

>  <Ki>
> 1000 nM

$$$$
>  <COMPOUND>
CNCCC(c1ccsc1)N1CC(C)(C)c2ncc(F)cc21 (stereo not drawn)

>  <Ki>
> 1000 nM

$$$$
>  <COMPOUND>
CNCCC(c1cccs1)N1CCc2c(F)cc(F)cc21 (stereo not drawn)

>  <Ki>
< 100 nM

$$$$
>  <COMPOUND>
CNCC[C@@H](c1ccsc1)N1CC(C)(C)c2nc(C(F)(F)F)ccc21

>  <Ki>
100 to 500 nM

$$$$
>  <COMPOUND>
CNCCC(c1cccs1)N1CC(C)(C)c2nc(OC)ccc21 (stereo not drawn)

>  <Ki>
100 to 500 nM

$$$$
>  <COMPOUND>
CNCC[C@@H](c1cc(C)cs1)N1CCc2ncccc21

>  <Ki>
> 1000 nM

$$$$
>  <COMPOUND>
CNCC[C@H](c1ccsc1)N1CC(C)(C)c2ncc(F)cc21

>  <Ki>
> 1000 nM

$$$$
>  <COMPOUND>
CNCC[C@@H](c1cscc1C)N1CCc2ncccc21

>  <Ki>
100 to 500 nM

$$$$
>  <COMPOUND>
CNCCC(c1cccs1)N1CCc2c(C#N)cccc21 (stereo not drawn)

>  <Ki>
< 100 nM

$$$$
>  <COMPOUND>
CNCCC(c1ccsc1)N1CC(C)(C)c2ncc(Cl)cc21 (racemic)

>  <Ki>
> 1000 nM

$$$$
>  <COMPOUND>
CNCC[C@H](c1ccsc1)N1CCc2ncccc21

>  <Ki>
> 1000 nM

$$$$
>  <COMPOUND>
CNCC[C@H](c1ccsc1)N1CC(C)(C)c2ncccc21

>  <Ki>
> 1000 nM

$$$$
>  <COMPOUND>
CNCC[C@@H](c1ccsc1)N1CCc2ncc(C)cc21

>  <Ki>
> 1000 nM

$$$$
>  <COMPOUND>
CNCCC(c1ccc(F)s1)N1CCc2ncccc21 (stereo not drawn)

>  <Ki>
500 to 1000 nM

$$$$
>  <COMPOUND>
CNCCC(c1cccs1)N1CC(C)(C)c2ccccc21 (stereo not drawn)

>  <Ki>
< 100 nM

$$$$
>  <COMPOUND>
CNCC[C@@H](c1ccsc1)N1CC(C)(C)c2ncc(C)cc21

>  <Ki>
> 1000 nM

$$$$
>  <COMPOUND>
CNCC[C@@H](c1ccsc1)N1CC(C)(C)c2ncc(F)cc21

>  <Ki>
500 to 1000 nM

$$$$
>  <COMPOUND>
CNCC[C@@H](c1cccs1)N1CCc2nc(C(C)C)ccc21

>  <Ki>
> 1000 nM

$$$$
